The following binders are listed with their measured EC50 (cAMP luciferase reporter) values.
System name: GLP-1 receptor (human, UniProt P43220 24-463)
Experimental protocol: cell-based or functional assay
No end group written: not given here.
Response body: numeric value in pM, unit text excluded.

Solved cases (4 shown):
{"columns": ["Binder", "Endpoint unit", "EC50 (cAMP luciferase reporter)"],
 "data": [
  ["HAQGTFTSDKSKYLDERAAQDFVC(PEG 40 kDa)WLLDT-NH2 (also: other non-coded residues as, not given here) [Glucagon Analog 81]", "pM", 12],
  ["HSQGTFTSDKSKYLDEQAAKEFICWLLDTE-NH2 (not fully specified; also: further groups not given here) [Glucagon Analog 83]", "pM", 24],
  ["HSQGTFTSDKSKYLDEQAAKEFIC(PEG 40 kDa)WLLDT-NH2 (not fully specified; also: further groups not given here) [Glucagon Analog 79]", "pM", 125],
  ["HSQGTFTSDKSKYLDEQAAKEFIC(PEG 40 kDa)WLLDTGG-NH2 (not fully specified; also: further groups not given here) [Glucagon Analog 78]", "pM", 26]
]}

Please look at the following binder next.
Input: I would be grateful if you could share the reported EC50 (cAMP luciferase reporter) for HSQGTFTSDKSKYLDEQAAKEFICWLLDE-NH2 (not fully specified; also: further groups not given here) [Glucagon Analog 82] .
Output: 20
